Kd data for Somatostatin receptor type 1 (Rattus norvegicus, UniProt P28646) follow.
EXPERIMENTAL_ENDPOINT: Kd (nM)

Example cases with answers are listed next.
// sample `CN(CCC(=O)N1CCN(c2ccc(Cl)c(Cl)c2)CC1)CCC1c2ccccc2-c2ccccc21` , its Kd was 1.91

// sample `CN(CCC(=O)N1CCN(c2ccncc2)CC1)CCC1c2ccccc2-c2ccccc21` , its Kd was 21.4

// sample `CN(CCC(=O)N1CCN(c2ccc3nonc3c2)CC1)CCC1c2ccccc2Oc2ccccc21` , its Kd was 0.324

[P] CN(CCC(=O)N1CCN(c2ccccc2C#N)CC1)CCC1c2ccccc2-c2ccccc21
[Q] CN(CCC(=O)N1CCN(c2cccc(=O)n2C)CC1)CCC1c2ccccc2-c2ccccc21
Query string: Name the one with the greater Kd value, either P or Q as given. Your choice should be expressed through its label.
Result string: P
(P: 4.57 nM, Q: 2.14 nM)

[P] C=CCN(CCC(=O)N1CCN(c2ccc([N+](=O)[O-])cc2)CC1)CCC1c2ccccc2-c2ccccc21
[Q] CN(CCC(=O)N1CCN(c2ccc([N+](=O)[O-])cc2)CC1)CCC(c1ccccc1)c1ccccc1
[R] CN(CCC(=O)N1CCN(c2ccc(C(F)(F)F)cc2)CC1)CCC1c2ccccc2-c2ccccc21
[S] O=C(CCN(CCC1c2ccccc2-c2ccccc21)CC1CC1)N1CCN(c2ccc([N+](=O)[O-])cc2)CC1
Query string: Arrange these 4 compounds in increasing order of Kd. State the ranking by listing the labels in the requested order.
Result string: P, Q, R, S

[A] CN(CCC(=O)N1CCN(c2ccc([N+](=O)[O-])cc2)CC1)CCn1c2ccccc2c2ccccc21
[B] CN(CCC(=O)N1CCN(c2ccc([N+](=O)[O-])cc2)CC1)CCC1c2ccccc2C=Cc2ccccc21
[C] CN(CCC(=O)N1CCN(c2ccc(F)c(F)c2)CC1)CCC1c2ccccc2Oc2ccccc21
Query string: Please give the order of these compounds when sorted by Kd, largest value leading. State the ranking by listing the labels in the requested order.
Result string: A, B, C
(A: 331 nM, B: 11.5 nM, C: 0.776 nM)

###

Kd data for Somatostatin receptor type 2 (Homo sapiens, UniProt P30874) follow.
EXPERIMENTAL_ENDPOINT: Kd (µM)

[1] CN(CCC(=O)N1CCN(c2ccc3nonc3c2)CC1)CCC1c2ccccc2-c2ccccc21
[2] CN(CCC(=O)N1CCN(c2ccc(F)c(F)c2)CC1)CCC1c2ccccc2Oc2ccccc21
Query string: Could you determine which record has the numerically smaller Kd? Candidates: 1 and 2 Your choice should be expressed through its label.
Result string: 1

###

Target: Somatostatin receptor type 1 (Homo sapiens, UniProt P30872)
Sequence (P30872 whole entry): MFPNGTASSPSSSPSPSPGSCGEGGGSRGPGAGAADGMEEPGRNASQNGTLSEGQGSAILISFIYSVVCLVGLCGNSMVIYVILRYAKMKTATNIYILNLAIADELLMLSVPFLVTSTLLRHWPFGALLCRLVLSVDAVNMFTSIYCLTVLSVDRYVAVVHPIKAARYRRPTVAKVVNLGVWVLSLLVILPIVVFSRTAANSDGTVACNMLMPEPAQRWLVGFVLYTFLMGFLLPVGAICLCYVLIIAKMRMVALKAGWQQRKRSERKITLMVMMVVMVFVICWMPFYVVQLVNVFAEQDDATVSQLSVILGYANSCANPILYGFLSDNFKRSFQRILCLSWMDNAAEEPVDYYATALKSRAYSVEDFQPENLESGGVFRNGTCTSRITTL
EXPERIMENTAL_ENDPOINT: pKd
// returns pKd (minus log10 of molar concentration), number only

Case `CN(CCC(=O)N1CCN(c2ccc3nonc3c2)CC1)CCC1c2ccccc2Oc2ccccc21` , Somatostatin receptor type 1 (Homo sapiens, UniProt P30872), pKd recorded as 8.67

###

Experiment: Tmax in mouse at 10 umol/kg, iv and 30 umol/kg, po
Type: ADME, organism-based
Settings: in vivo
EXPERIMENTAL_ENDPOINT: Tmax (h)

// sample `CN(CCC(=O)N1CCN(c2ccc(F)c(F)c2)CC1)CCC1c2ccccc2Oc2ccccc21` , its Tmax was 1

// sample `CN(CCC(=O)N1CCN(c2ccc(F)c(F)c2)CC1)CCC1c2ccccc2-c2ccccc21.Cl` , its Tmax was 1
